Source listed as ChEMBL document CHEMBL3399941.

- protocolSummary: Solubility in pH 7.4 buffer
- Assay type: physicochemical
measurementKind: solubility (µM)
Dear colleague, please return just the value in µM, with no unit written.

### Prompt Specify solubility for CCn1c(C)nnc1C(C)NS(=O)(=O)c1ccc(Cl)cc1 (racemic) and stop.
### Response 380

----------
Please go through the items and note down their EC50.
- testedSystem: Sphingosine 1-phosphate receptor 1 (Homo sapiens)
- Sequence (P21453 whole entry): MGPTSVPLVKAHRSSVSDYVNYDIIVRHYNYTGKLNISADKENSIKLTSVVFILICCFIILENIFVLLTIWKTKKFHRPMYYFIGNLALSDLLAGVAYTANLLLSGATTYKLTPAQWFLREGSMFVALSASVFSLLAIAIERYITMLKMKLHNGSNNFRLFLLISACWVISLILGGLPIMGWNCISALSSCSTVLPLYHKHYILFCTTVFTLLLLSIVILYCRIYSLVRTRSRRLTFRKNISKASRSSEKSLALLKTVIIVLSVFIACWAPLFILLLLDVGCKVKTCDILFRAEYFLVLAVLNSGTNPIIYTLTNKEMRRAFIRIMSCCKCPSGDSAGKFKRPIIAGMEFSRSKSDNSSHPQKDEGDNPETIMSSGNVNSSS
- protocolSummary: Antagonist activity against S1P1R in human U2OS cells expressing beta-arrestin/green fluorescent protein assessed as effect on S1P-induced beta-arrestin GFP relocalization incubated for 30 mins by Hoechst 33342 staining based receptor translocation assay
All answers are understood in nM, so give the number only.

### Prompt Determine its reported EC50: CCc1nnc(C(Cc2ccccc2)NS(=O)(=O)c2ccc(Cl)cc2)n1C (racemic)
### Response 340

### Prompt For the compound CCn1c(C)nnc1C(Cc1ccccc1)NS(=O)(=O)c1ccc(Cl)cc1 (racemic) , give its measured EC50 value.
### Response 460

### Prompt Tell me measured EC50 for CCc1nnc(C(C)NS(=O)(=O)c2ccc(Cl)cc2)n1CC (racemic) please.
### Response 410

### Prompt Give reported EC50 value for Cn1c(C(Cc2ccccc2)NS(=O)(=O)c2ccc(Cl)cc2)nnc1C(F)(F)F (racemic)
### Response 3170

### Prompt Report EC50 for Cc1nnc(C(Cc2ccccc2)NS(=O)(=O)c2ccc(Cl)cc2)n1C(C)C (racemic)
### Response 6340

### Prompt Indicate its recorded EC50; the compound in question is CCc1nnc(C(Cc2ccccc2)NS(=O)(=O)c2ccc(Cl)cc2)o1 (racemic)
### Response 15200

### Prompt Respond only with EC50 recorded for CCn1c(C)nnc1C(Cc1cccnc1)NS(=O)(=O)c1ccc(Cl)cc1 (racemic)
### Response 2370

### Prompt Name the recorded EC50 of the item CCc1nnc(C(Cc2ccccc2)NS(=O)(=O)c2ccc(Cl)cc2)n1CC (racemic) in your answer.
### Response 220

### Prompt Supply recorded EC50 for CCCCc1nnc(C(Cc2ccccc2)NS(=O)(=O)c2ccc(Cl)cc2)n1C (racemic) here.
### Response 3230

### Prompt State its EC50: CCc1onc(C(C)NS(=O)(=O)c2ccc(Cl)cc2)c1CC (racemic)
### Response 3030

### Prompt Give recorded EC50. CCCC(NS(=O)(=O)c1ccc(Cl)cc1)c1nnc(C)n1CC (racemic)
### Response 6190

### Prompt Retrieve EC50 measured for CCn1c(C)nnc1C(CC1CC1)NS(=O)(=O)c1ccc(Cl)cc1 (racemic) and print it.
### Response 7690

### Prompt Read off the recorded EC50 for CCc1nnc([C@@H](C)NS(=O)(=O)c2ccc(Cl)cc2)n1CC
### Response 250

### Prompt Supply EC50 value. Item: Cn1cnnc1C(Cc1ccccc1)NS(=O)(=O)c1ccc(Cl)cc1 (racemic)
### Response 22100

### Prompt # return recorded EC50 for entry CCn1c(C)nnc1C(Cc1ccc(F)cc1)NS(=O)(=O)c1ccc(Cl)cc1 (racemic)
### Response 490

### Prompt Fill in reported EC50 for this entry: CCCn1c(C)nnc1C(Cc1ccccc1)NS(=O)(=O)c1ccc(Cl)cc1 (racemic)
### Response 2690
